Value type: Solubility scale factor at 15° C. 30% PEG 4000/10% poloxamer 407

Compound: Cc1ccc(-c2cc(C(F)(F)F)nn2-c2ccc(S(N)(=O)=O)cc2)cc1
Reading: 183.33

Compound: C[C@@H](O[C@H]1OCCN(Cc2n[nH]c(=O)[nH]2)[C@H]1c1ccc(F)cc1)c1cc(C(F)(F)F)cc(C(F)(F)F)c1 [Aprepitant]
Reading: 236.00

Compound: O=C(NC(Cc1cc(=O)[nH]c2ccccc12)C(=O)O)c1ccc(Cl)cc1 (stereo not shown) [Rebamipide]
Reading: 1.07

Compound: Brc1cccc2c1oc1ccccc12
Reading: 1.61

Compound: O=C1Nc2ccc(Cl)cc2[C@@](C#CC2CC2)(C(F)(F)F)O1
Reading: 1.97

Compound: CC1(C)O[C@@H]2C[C@H]3[C@@H]4CCC5=CC(=O)C=C[C@]5(C)[C@@]4(F)[C@@H](O)C[C@]3(C)[C@]2(C(=O)CO)O1 [Triamsinolone acetonide]
Reading: 7.52

Compound: CC1(C)O[C@@H]2C[C@H]3[C@@H]4CCC5=CC(=O)C=C[C@]5(C)[C@H]4[C@@H](O)C[C@]3(C)[C@]2(C(=O)CO)O1 [Desonide]
Reading: 6.73

Compound: CNC(=O)c1cc(Oc2ccc(NC(=O)Nc3ccc(Cl)c(C(F)(F)F)c3)c(F)c2)ccn1
Reading: 114.87

Compound: COc1cc2nccc(Oc3ccc(NC(=O)C4(C(=O)Nc5ccc(F)cc5)CC4)cc3)c2cc1OC [Cabozantinib]
Reading: 74.57

Compound: CNC(=O)c1cc(Oc2ccc(NC(=O)Nc3ccc(Cl)c(C(F)(F)F)c3)cc2)ccn1
Reading: 450.47

Compound: CC1(C)O[C@@H]2C[C@H]3[C@@H]4C[C@H](F)C5=CC(=O)C=C[C@]5(C)[C@@]4(F)[C@@H](O)C[C@]3(C)[C@]2(C(=O)CO)O1 [Fluocinolone acetonide]
Reading: 18.27

Compound: O=C1CCc2cc(OCCCCc3nnnn3C3CCCCC3)ccc2N1
Reading: 10.22

Compound: Cc1cn(-c2cc(NC(=O)c3ccc(C)c(Nc4nccc(-c5cccnc5)n4)c3)cc(C(F)(F)F)c2)cn1
Reading: 31.62
